Hello, the source for this data is patent US20250163183A1, in case you need it.

Answer each item with its documented kon.
- measured-on: T1, human activated protein C (APC) (human, UniProt P04070 43-461)
- T1 construct: Bought (Haematologic Technologies; plasma-derived from Enzyme Research Laboratories); Two-chain disulfide-linked protease
- test-description: BLI, VHH captured via anti-V5, APC in solution
Give bare numbers, in M⁻¹ s⁻¹.

The recorded kon for LP13 (SR16983-R3-P3-G08) (VHH, not shown: small tags and cut ends, Llama VHH purified from E. coli periplasm) VHH: QLQLVESGGGLVQAGGSLRLSCVASGTTFTIEDIGWHRQAPGKQLELVAVSRGGGNADYSDSVKGRFTISRDNAKTTVYLQMSSLKPEDTAVYYCIAKTKATTKWGRGIQVTVSS is 350000

Required: kon, one value per binder below.
1. LP15 (SR16983-R3-P5-H05) (VHH, not shown: small tags and cut ends, Llama VHH purified from E. coli periplasm) VHH: QLQLVESGGGLVQAGGSLRLSCAASGTTFSFVYMGWYRQAPGNQRDLVARISSDGSTNYADSVKGRFTISGDNAKNTVYLQMNSLKPEDTARYYCFWNGHTNKWGQGTQVTVSS
2. LP19 (SR16983-R4-P1-B06) (VHH, not shown: small tags and cut ends, Llama VHH purified from E. coli periplasm) VHH: QLQLVESGGGEVQAGESLRLSCAASGSTFSINVFAWYRDYPGKQRELVAVIGRSGTPRYADSVKGRFTISRDNAKNTVYLQMNSLEPEDTAVYYCHLGDTWGQGTQVTVSS

Given back:
1. 400000
2. 410000
